Test system: HCV replicon 1A
experimental-protocol: Cell-based HCV replicon assay (Replicon Assay A), replicon 1A
Design: species or system Hepatitis C virus
settings: Hepatitis C virus, 72 h, replicon RNA by real time PCR, day 3
readout: pEC50
One number for each entry, as −log10 of the molar value.

COC(=O)N[C@H](C(=O)N1CCC[C@H]1c1ncc(-c2cc(F)c3c(c2)OC(c2ccc4c(c2)OC(C)(C)C4)n2c-3cc3cc(-c4cnc([C@@H]5CCCN5C(=O)[C@@H](NC(=O)OC)C(C)C)[nH]4)ccc32)[nH]1)C(C)C (single isomer, unassigned) [Compound 27]; 11.85

Note: attention shifts to another entry.
## Task Please give the measured pEC50 for this compound: CCO[C@H](C)[C@H](NC(=O)OC)C(=O)N1CCC[C@H]1c1ncc(-c2cc(F)c3c(c2)OC(c2ccc4c(c2)OCCC4)n2c-3cc3cc(-c4cnc([C@@H]5CCCN5C(=O)[C@@H](NC(=O)OC)C(C)C)[nH]4)ccc32)[nH]1 (single isomer, unassigned) [Compound 39]
## Result 11.77

* * *

System: HCV replicon 1A
experimental-protocol: Cell-based HCV replicon assay (Replicon Assay A), replicon 1A
Parameters: species or system Hepatitis C virus
settings: replicon RNA by real time PCR, day 3
Description: To measure cell-based anti-HCV activity of compounds of the present invention, two complimentary assays were employed using various replicons. […] The replicon RNA level was measured using real time PCR (TaqMan® EZ RT-PCR, Applied Biosystems 403028) with the following primers and probes: […] The amount of HCV replicon RNA per cell was quantified using a linear regression curve for a known nanogram (ng) amount of HCV replicon total RNA. […]
I'd be grateful if you could share measured EC50 for these entries.
Answers are plain numbers, in nM.

COC(=O)N[C@H](C(=O)N1CCC[C@H]1c1ncc(-c2cc(F)c3c(c2)OC(c2ccc4c(c2)OCCC4)n2c-3cc3cc(-c4cnc([C@@H]5C[C@@H](F)CN5C(=O)[C@@H](c5ccccc5)N5CCC5)[nH]4)ccc32)[nH]1)C(C)C (single isomer, unassigned) [Compound 37]; 0.187

## Task # query: EC50 of entry COC(=O)N[C@H](C(=O)N1CCC[C@H]1c1ncc(-c2cc(F)c3c(c2)OC(c2ccc4c(c2)OCCC4C)n2c-3cc3cc(-c4cnc([C@@H]5CCCN5C(=O)[C@@H](NC(=O)OC)C(C)C)[nH]4)ccc32)[nH]1)C(C)C (single isomer, unassigned) [Compound 10]
## Result 0.0024

* * *

System: HCV replicon 1A
experimental-protocol: Cell-based HCV replicon assay (Replicon Assay A), replicon 1A
Parameters: species or system Hepatitis C virus
settings: replicon RNA by real time PCR, day 3
Provide the recorded pEC50 for the entries that follow.
Numbers only, as −log10 of the molar value.

In the examples that follow, each entry is paired with its recorded pEC50.
COC(=O)N[C@H](C(=O)N1CCC[C@H]1c1ncc(-c2cc(F)c3c(c2)OC(c2ccc4c(c2)OC(C)(C)C4)n2c-3cc3cc(-c4cnc([C@@H]5CCCN5C(=O)[C@@H](NC(=O)OC)C(C)C)[nH]4)ccc32)[nH]1)C(C)C (single isomer, unassigned); 11.77
COC(=O)NC(C(=O)N1CCC[C@H]1c1ncc(-c2ccc3c(c2)cc2n3C(c3ccc4c(c3)OCCC4)Oc3cc(-c4cnc([C@@H]5CCCN5C(=O)[C@@H](NC(=O)OC)C(C)C)[nH]4)cc(F)c3-2)[nH]1)C1CCOC(C)(C)C1 (single isomer, unassigned); 11.59

List pEC50 for every entry below, keeping the order given.
1. COC(=O)NC(C(=O)N1CCC[C@H]1c1ncc(-c2ccc3c(c2)cc2n3C(c3ccc4c(c3)OC(C)CC4)Oc3cc(-c4cnc([C@@H]5CCCN5C(=O)[C@@H](NC(=O)OC)C(C)C)[nH]4)cc(F)c3-2)[nH]1)C1C[C@@H](C)O[C@@H](C)C1 (single isomer, unassigned) [Compound 60]
2. COC(=O)NC(C(=O)N1CCC[C@H]1c1ncc(-c2ccc3c(c2)cc2n3C(c3ccc4c(c3)OC(C)CC4)Oc3cc(-c4cnc([C@@H]5CCCN5C(=O)[C@@H](NC(=O)OC)C(C)C)[nH]4)cc(F)c3-2)[nH]1)C1CCOC(C)(C)C1 (single isomer, unassigned) [Compound 63]
3. COC(=O)N[C@H](C(=O)N1CCC[C@H]1c1ncc(-c2cc(F)c3c(c2)OC(c2ccc4c(c2)OC(C)CC4)n2c-3cc3cc(-c4cnc([C@@H]5CCCN5C(=O)[C@@H](NC(=O)OC)C(C)C)[nH]4)ccc32)[nH]1)C(C)C (single isomer, unassigned) [Compound 14]
4. COC(=O)N[C@H](C(=O)N1CCC[C@H]1c1ncc(-c2cc(F)c3c(c2)OC(c2ccc4c(c2)OCCC4)n2c-3c(F)c3cc(-c4cnc([C@@H]5CCCN5C(=O)[C@@H](NC(=O)OC)C5CCOCC5)[nH]4)ccc32)[nH]1)C(C)C (single isomer, unassigned)
5. COC(=O)NC(C(=O)N1[C@@H]2C[C@@H]2C[C@H]1c1ncc(-c2ccc3c(c2)cc2n3C(c3ccc4c(c3)OCCC4)Oc3cc(-c4cnc([C@@H]5CCCN5C(=O)[C@@H](NC(=O)OC)C(C)C)[nH]4)cc(F)c3-2)[nH]1)C1CCO[C@H](C)C1 (single isomer, unassigned)
6. COC(=O)NC(C(=O)N1CCC[C@H]1c1ncc(-c2ccc3c(c2)cc2n3C(c3ccc4c(c3)OC(C)CC4)Oc3cc(-c4cnc([C@@H]5CCCN5C(=O)[C@@H](NC(=O)OC)C(C)C)[nH]4)cc(F)c3-2)[nH]1)C1C[C@@H](C)O[C@@H](C)C1 (single isomer, unassigned) [Compound 58]

## Result
11.52
11.59
11.74
11.82
11.77
11.66

Please supply pEC50 for each of the following items, keeping them in order.
1. COC(=O)N[C@H](C(=O)N1CCC[C@H]1c1ncc(-c2cc(F)c3c(c2)OC(c2ccc4c(c2)CC2CC2(C)O4)n2c-3cc3cc(-c4cnc([C@@H]5CCCN5C(=O)[C@@H](NC(=O)OC)C(C)C)[nH]4)ccc32)[nH]1)C(C)C (single isomer, unassigned)
2. COC(=O)NC(C(=O)N1CCC[C@H]1c1ncc(-c2cc(F)c3c(c2)OC(c2ccc4c(c2)OCCC4)n2c-3cc3cc(-c4cnc([C@@H]5CCCN5C(=O)[C@@H](NC(=O)OC)C5CCOCC5)[nH]4)ccc32)[nH]1)C(C)(C)F (single isomer, unassigned) [Compound 88]
3. COC(=O)N[C@H](C(=O)N1CCC[C@H]1c1ncc(-c2ccc3c(c2)cc2n3C(c3ccc4c(c3)OCCC4)Oc3cc(-c4cnc([C@@H]5CCCN5C(=O)[C@@H](NC(=O)OC)C5CCOCC5)[nH]4)cc(F)c3-2)[nH]1)C(C)C (single isomer, unassigned)

## Result
[11.55, 10.83, 11.68]

For each of the items listed, what is its pEC50?
1. COC(=O)NC(C(=O)N1CCC[C@H]1c1ncc(-c2ccc3c(c2)cc2n3C(c3ccc4c(c3)CCCO4)Oc3cc(-c4cnc([C@@H]5CCCN5C(=O)[C@@H](NC(=O)OC)C(C)C)[nH]4)cc(F)c3-2)[nH]1)C1C[C@@H](C)O[C@@H](C)C1 (single isomer, unassigned)
2. COC(=O)N[C@H](C(=O)N1CCC[C@H]1c1ncc(-c2cc(F)c3c(c2)OC(c2ccc4c(c2)OCCC4(F)F)n2c-3cc3cc(-c4cnc([C@@H]5CCCN5C(=O)[C@@H](NC(=O)OC)C(C)C)[nH]4)ccc32)[nH]1)C(C)C (single isomer, unassigned)
3. COC(=O)NC(C(=O)N1CCC[C@H]1c1ncc(-c2ccc3c(c2)cc2n3C(c3ccc4c(c3)CCCO4)Oc3cc(-c4cnc([C@@H]5CCCN5C(=O)[C@@H](NC(=O)OC)C(C)C)[nH]4)cc(C)c3-2)[nH]1)C1C[C@@H](C)O[C@@H](C)C1 (single isomer, unassigned)
4. COC(=O)N[C@H](C(=O)N1CCC[C@H]1c1ncc(-c2cc(F)c3c(c2)OC(c2ccc4c(c2)OCCC4C)n2c-3cc3cc(-c4cnc([C@@H]5CCCN5C(=O)[C@@H](NC(=O)OC)C(C)C)[nH]4)ccc32)[nH]1)C(C)C (single isomer, unassigned) [Compound 9]

## Result
[11.60, 11.89, 11.70, 11.59]

* * *

Tested on: HCV replicon 1A
experimental-protocol: Cell-based HCV replicon assay (Replicon Assay A), replicon 1A
Parameters: species or system Hepatitis C virus
settings: Hepatitis C virus, 72 h, replicon RNA by real time PCR, day 3
readout: pEC50
Answers are plain numbers, as −log10 of the molar value.

## Task Query (molecule): COC(=O)NC(C(=O)N1CCC[C@H]1c1ncc(-c2ccc3c(c2)cc2n3C(c3ccc4c(c3)OCCC4)Oc3cc(-c4cnc([C@@H]5CCCN5C(=O)[C@@H](NC(=O)OC)C(C)C)[nH]4)cc(C)c3-2)[nH]1)C1C[C@@H](C)O[C@@H](C)C1 (single isomer, unassigned) ; field requested: pEC50
## Result 11.57
